Target: T1, human CEACAM5 on tumor cells (LOVO, LS174T, KATO3) (human, UniProt P06731 35-685)
T1 construct: whole, on cells; also called LOVO cells; LS174T cells
T1 sequence (looked up): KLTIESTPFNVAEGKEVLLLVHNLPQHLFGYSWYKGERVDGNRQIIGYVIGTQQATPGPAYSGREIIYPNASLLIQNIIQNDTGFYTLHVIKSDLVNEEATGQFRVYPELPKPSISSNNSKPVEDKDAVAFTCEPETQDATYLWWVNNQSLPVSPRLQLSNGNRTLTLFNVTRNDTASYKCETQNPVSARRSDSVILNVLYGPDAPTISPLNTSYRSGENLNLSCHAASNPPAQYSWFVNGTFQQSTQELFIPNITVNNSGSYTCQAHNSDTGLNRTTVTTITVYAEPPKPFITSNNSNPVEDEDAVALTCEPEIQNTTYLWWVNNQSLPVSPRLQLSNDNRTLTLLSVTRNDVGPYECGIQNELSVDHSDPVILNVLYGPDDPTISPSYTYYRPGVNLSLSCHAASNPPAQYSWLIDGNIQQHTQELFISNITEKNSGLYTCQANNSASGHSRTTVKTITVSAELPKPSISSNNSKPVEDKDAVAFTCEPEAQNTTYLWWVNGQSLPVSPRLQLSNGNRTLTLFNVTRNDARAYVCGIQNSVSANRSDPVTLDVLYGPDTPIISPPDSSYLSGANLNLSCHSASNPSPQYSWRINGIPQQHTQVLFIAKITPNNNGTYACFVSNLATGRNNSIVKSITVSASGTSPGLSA
Test: FACS on LS174T cells
Protocol: LS174T cells (tumor cells with high expression of CEACAM5) were cultured in RPMI1640 medium containing 10% FBS. […] After incubation, the cells were washed once with FACS buffer, resuspended in 200 μl FACS buffer, and the fluorescence signal value was read in BD C6 plus. […]
# Emax MFI (Average fluorescence intensity) per record follows
Just the number in MFI, nothing appended.

Example cases with answers are listed next.
{"columns": ["Binder", "Obs value"],
 "data": [
  ["human-mouse chimeric antibody UM05-5L (antibody, human IgG1, kappa, V domains shown, expressed in HEK293) VH: QVQLQQSDADLVKPGASVKISCKVSGYTFTDHTIHWMKQRPEQGLECIGYIYPRDGNTKYNEKFKGKATLTADRSSITAYMQLNSLTSEDSAVYFCARPIYDGYSFDYWGQGTTLTVSS VL: QIVLTQSPAIMSASPGEKVTMTCRASSSVSYMHWYQQKSGTSPKRWIYDTSKLASGVPARFSGSGSGTSYSLTISSMAAEDAATYYCQQWTRNPPTFGAGTKLELKR", 79700],
  ["humanized antibody hUM05-3 (antibody, V domains shown, detected with anti-human IgG Fc-APC) VH: EVQLVQSGAEVKKPGATVKISCKVSGYTFTDHTMHWMQQAPGQGLEWIGLIYPRDGSTIYNEKFQGRATLTADRSTDTAYMELSSLRSEDTAVYFCARPIYDGYSFDYWGQGTLVTVSS VL: QIVLTQSPATLSASPGERATLSCRASSSVSYMHWYQQKPGQAPKRWIYDTSNRATGVPARFSGSGSGTDYTLTISSMEPEDAAVYYCQQWTRNPPTFGQGTKLELK", 52900],
  ["hUM05-3 W47C (antibody, V domains shown, also called mutated humanized antibody hUM05-3 (VH Trp47 to Cys)) VH: EVQLVQSGAEVKKPGATVKISCKVSGYTFTDHTMHWMQQAPGQGLECIGLIYPRDGSTIYNEKFQGRATLTADRSTDTAYMELSSLRSEDTAVYFCARPIYDGYSFDYWGQGTLVTVSS VL: QIVLTQSPATLSASPGERATLSCRASSSVSYMHWYQQKPGQAPKRWIYDTSNRATGVPARFSGSGSGTDYTLTISSMEPEDAAVYYCQQWTRNPPTFGQGTKLELK", 34400]
]}

Now look at this one.
Look up and report measured Emax MFI (Average fluorescence intensity) for this entry: UM05-5L C47W (antibody, human IgG1, kappa, V domains shown, also called mutated human-mouse chimeric antibody UM05-5L (VH Cys47 to Trp)) VH: QVQLQQSDADLVKPGASVKISCKVSGYTFTDHTIHWMKQRPEQGLEWIGYIYPRDGNTKYNEKFKGKATLTADRSSITAYMQLNSLTSEDSAVYFCARPIYDGYSFDYWGQGTTLTVSS VL: QIVLTQSPAIMSASPGEKVTMTCRASSSVSYMHWYQQKSGTSPKRWIYDTSKLASGVPARFSGSGSGTSYSLTISSMAAEDAATYYCQQWTRNPPTFGAGTKLELKR
55200
